- Tested on: influenza A/H3N2 (A/HK/7/87)
- EXPERIMENT NOTES: Antiviral CPE reduction assay, influenza A/H3N2 in MDCK
- Format: cell-based
- CONDITION SUMMARY: Influenza A virus, MDCK cells, 100 CCID50, MTS
PROPERTY NAME: EC50

Guide cases for EC50, answers given:
COMPOUND: CC(C)Cn1c(/N=C/c2ccc([N+](=O)[O-])cc2)nc2ccc(C#N)cc21 [Compound 32]
EC50: > 100 µM
//
COMPOUND: CCN(CC)c1ccc(/C=N/c2nc3ccc(C#N)cc3n2C)c(O)c1 [Compound 36]
EC50: > 100 µM
//
COMPOUND: CCCCCCn1c(/N=C/c2ccc(N(C)C)cc2)nc2ccccc21 [Compound 42]
EC50: > 100 µM
//
COMPOUND: CC(=O)N[C@H]1[C@H]([C@H](O)[C@H](O)CO)OC(C(=O)O)=C[C@@H]1N=C(N)N [Zanamivir, zanamivir, reference compound]
EC50: 16.8 µM
//
COMPOUND: CCN(CC)c1ccc(/C=N/c2nc3ccc(C#N)cc3n2CC(C)C)c(O)c1 [Compound 31]
EC50: > 100 µM
//
COMPOUND: CC(C)Cn1c(N)nc2ccccc21 [Compound 17, 2-amino-1-isobutylbenzimidazole]
EC50: > 100 µM
//
COMPOUND: Cn1c(N)nc2ccc(C#N)cc21 [Compound 22, 2-amino-6-cyano-1-methylbenzimidazole]
EC50: > 100 µM
//
COMPOUND: CN(C)c1ccc(/C=N/c2nc3ccccc3n2-c2ccccc2)cc1 [Compound 38]
EC50: > 100 µM
//
COMPOUND: NC(=O)c1ncn([C@@H]2O[C@H](CO)[C@@H](O)[C@H]2O)n1 [Ribavirin, ribavirin, reference compound]
EC50: 4 µM
//
COMPOUND: CN(C)c1ccc(/C=N/c2nc3ccc(C#N)cc3n2C)cc1 [Compound 34]
EC50: > 100 µM

Dear reader, for each entry below, please note its EC50.
1. Cn1c(N)nc2ccccc21 [Compound 18, 2-amino-1-methylbenzimidazole]
2. CC(C)Cn1c(/N=C/c2ccc(N(C)C)cc2)nc2ccc(C#N)cc21 [Compound 29]
3. CCN(CC)c1ccc(/C=N/c2nc3ccc(C#N)cc3n2-c2ccccc2)c(O)c1 [Compound 41]
4. CC(N)C12CC3CC(CC(C3)C1)C2 (centres unmarked) [Rimantadine, rimantadine, reference compound]

> 100 µM
> 100 µM
> 100 µM
0.05 µM

----------
- Tested on: Zika virus (Mr776)
- EXPERIMENT NOTES: Antiviral CPE reduction assay, Zika virus in Huh-7
- Type: cell-based
- CONDITION SUMMARY: Huh-7 cells, 100 CCID50, MTS
Give measured EC50 for each item. Keep answers brief.

MOLECULE: CCC(CC)COC(=O)[C@H](C)N[P@](=O)(OC[C@H]1O[C@@](C#N)(c2ccc3c(N)ncnn23)[C@H](O)[C@@H]1O)Oc1ccccc1 [Remdesivir, remdesivir, reference compound]
EC50: 0.7 µM
--
MOLECULE: NC(=O)c1ncn([C@@H]2O[C@H](CO)[C@@H](O)[C@H]2O)n1 [Ribavirin, ribavirin, reference compound]
EC50: > 250 µM

Now for another entry.
EC50 measured on CN(C)c1ccc(/C=N/c2nc3ccccc3n2-c2ccccc2)cc1 [Compound 38] = > 100 µM

----------
Assignment: determine reported IC50 for the given molecules.
- Test system: Capan-1, pancreatic adenocarcinoma
- EXPERIMENT NOTES: Proliferation assay (MTS, 72 h), Capan-1
- Format: cell-based, human
- CONDITION SUMMARY: Homo sapiens, CAPAN-1

The examples below pair each entry with its known result.
SMILES STRUCTURE: CCCCCCn1c(/N=C/c2ccc(N(C)C)cc2)nc2ccccc21
IC50: > 100 µM
//
SMILES STRUCTURE: CCN(CC)c1ccc(/C=N/c2nc3ccc(C#N)cc3n2-c2ccccc2)c(O)c1
IC50: 69.5 µM

Would you mind listing IC50 for each of the following molecules?
1. CCN(CC)c1ccc(/C=N/c2nc3ccccc3n2C)c(O)c1
2. CN(C)c1ccc(/C=N/c2nc3ccccc3n2C)cc1

1. > 100 µM
2. > 100 µM

----------
- Tested on: influenza A/H1N1 (A/Ned/378/05)
- EXPERIMENT NOTES: Antiviral CPE reduction assay, influenza A/H1N1 in MDCK
- Format: cell-based
- CONDITION SUMMARY: Influenza A virus, MDCK cells, 100 CCID50, MTS
PROPERTY NAME: EC50

// solved cases for EC50 follow
COMPOUND: CCN(CC)c1ccc(/C=N/c2nc3ccc(C#N)cc3n2CC(C)C)c(O)c1
MEASURED TARGET: influenza A/H1N1 (A/Ned/378/05)
PROPERTY NAME: EC50
OBS VALUE: > 100 µM
--
COMPOUND: CN(C)c1ccc(/C=N/c2nc3ccc(C#N)cc3n2C)cc1
MEASURED TARGET: influenza A/H1N1 (A/Ned/378/05)
PROPERTY NAME: EC50
OBS VALUE: > 100 µM
--
COMPOUND: CN(C)c1ccc(/C=N/c2nc3ccccc3n2-c2ccccc2)cc1
MEASURED TARGET: influenza A/H1N1 (A/Ned/378/05)
PROPERTY NAME: EC50
OBS VALUE: > 100 µM
--
COMPOUND: CC(C)Cn1c(N)nc2ccccc21
MEASURED TARGET: influenza A/H1N1 (A/Ned/378/05)
PROPERTY NAME: EC50
OBS VALUE: > 100 µM

List reported EC50 for each of these compounds:
1. CCN(CC)c1ccc(/C=N/c2nc3ccc(C#N)cc3n2-c2ccccc2)c(O)c1
2. CC(=O)N[C@H]1[C@H]([C@H](O)[C@H](O)CO)OC(C(=O)O)=C[C@@H]1N=C(N)N [Zanamivir, zanamivir, reference compound]

["> 100 µM", "0.1 µM"]

----------
- Tested on: human coronavirus HCoV-229E
- EXPERIMENT NOTES: organism not typed
- Format: cell-based
- CONDITION SUMMARY: HEL 299 cells, 100 CCID50, MTS; read-out: Antiviral Activity (EC50/μM) HCoV 229E HEL 299
I'd be grateful if you could share measured EC50 for these entries.
Give bare numbers, in µM.

MOLECULE: CCCCCCn1c(/N=C/c2ccc(N(C)C)cc2)nc2ccccc21
EC50 (µM): 34.7
--
MOLECULE: CCC(CC)COC(=O)[C@H](C)N[P@](=O)(OC[C@H]1O[C@@](C#N)(c2ccc3c(N)ncnn23)[C@H](O)[C@@H]1O)Oc1ccccc1 [Remdesivir, remdesivir, reference compound]
EC50 (µM): 0.06
--
MOLECULE: CCN(CC)c1ccc(/C=N/c2nc3ccc(C#N)cc3n2C)c(O)c1
EC50 (µM): 88.4

Let us examine a further case.
# EC50 (molecule: CC(C)Cn1c(N)nc2ccccc21 ) is 78.9

----------
- EXPERIMENT NOTES: in vitro
- CONDITION SUMMARY: human
PROPERTY NAME: CC50

Here's what some known entries look like.
SMILES STRUCTURE: CCN(CC)c1ccc(/C=N/c2nc3ccc(C#N)cc3n2C)c(O)c1
OBS VALUE: > 100 µM

SMILES STRUCTURE: Cn1c(N)nc2ccc(C#N)cc21
OBS VALUE: > 100 µM

SMILES STRUCTURE: CCN(CC)c1ccc(/C=N/c2nc3ccc(C#N)cc3n2-c2ccccc2)c(O)c1
OBS VALUE: > 100 µM

SMILES STRUCTURE: CCN(CC)c1ccc(/C=N/c2nc3ccc(C#N)cc3n2CC(C)C)c(O)c1
OBS VALUE: 85.7 µM

SMILES STRUCTURE: Cn1c(N)nc2ccccc21
OBS VALUE: > 100 µM

SMILES STRUCTURE: CC(C)Cn1c(/N=C/c2ccc(N(C)C)cc2)nc2ccc(C#N)cc21
OBS VALUE: > 100 µM

SMILES STRUCTURE: CC(C)Cn1c(N)nc2ccccc21
OBS VALUE: > 100 µM

We now examine a further molecule.
Data point: CC(C)Cn1c(/N=C/c2ccc([N+](=O)[O-])cc2)nc2ccc(C#N)cc21 ; CC50 = 90.1 µM

----------
Record form. Attribute: CC50. Fill in for each entry.
- EXPERIMENT NOTES: in vitro
- CONDITION SUMMARY: dog

For orientation, consider the following solved cases.
COMPOUND: Cn1c(N)nc2ccc(C#N)cc21
PROPERTY NAME: CC50
OBS VALUE: > 100 µM

COMPOUND: CCCCCCn1c(/N=C/c2ccc(N(C)C)cc2)nc2ccccc21
PROPERTY NAME: CC50
OBS VALUE: 34.6 µM

COMPOUND: CC(C)Cn1c(/N=C/c2ccc(N(C)C)cc2)nc2ccc(C#N)cc21
PROPERTY NAME: CC50
OBS VALUE: > 100 µM

COMPOUND: CN(C)c1ccc(/C=N/c2nc3ccc(C#N)cc3n2C)cc1
PROPERTY NAME: CC50
OBS VALUE: > 100 µM

COMPOUND: CCN(CC)c1ccc(/C=N/c2nc3ccc(C#N)cc3n2C)c(O)c1
PROPERTY NAME: CC50
OBS VALUE: > 100 µM

COMPOUND: Cn1c(N)nc2ccccc21
PROPERTY NAME: CC50
OBS VALUE: > 100 µM

Quick request: CC50 for each listed item, please.
1. NC(=O)c1ncn([C@@H]2O[C@H](CO)[C@@H](O)[C@H]2O)n1 [Ribavirin, ribavirin, reference compound]
2. CC(N)C12CC3CC(CC(C3)C1)C2 (centres unmarked) [Rimantadine, rimantadine, reference compound]

67 µM
> 100 µM
